Listed here: items and their measured MIC.
- Tested on: S. aureus UBMS 90-3 (Sensitive)
- ASSAY_OVERVIEW: MIC, agar dilution
- Type: cell-based
- TEST_CONDITIONS: S. aureus UBMS 90-3 (Sensitive)
PROPERTY_MEASURED: MIC (mg/L)

>  <COMPOUND>
CN(C)c1cc(NS(C)(=O)=O)c(O)c2c1CC1CC3C(N(C)C)C(O)=C(C(N)=O)C(=O)C3(O)C(O)=C1C2=O (stereo not shown)

>  <PROPERTY_MEASURED>
MIC

>  <MEASUREMENT_UNITS>
mg/L

>  <RESULT_VALUE>
0.12

$$$$
>  <COMPOUND>
CN(C)c1cc(NS(=O)(=O)c2ccc(Cl)cc2)c(O)c2c1CC1CC3C(N(C)C)C(O)=C(C(N)=O)C(=O)C3(O)C(O)=C1C2=O (stereo not shown)

>  <PROPERTY_MEASURED>
MIC

>  <MEASUREMENT_UNITS>
mg/L

>  <RESULT_VALUE>
0.12

$$$$
>  <COMPOUND>
CN(C)C1C(O)=C(C(N)=O)C(=O)C2(O)C(O)=C3C(=O)c4c(O)c(NC=O)cc(I)c4CC3CC12.O=S(=O)(O)O (stereo not shown)

>  <PROPERTY_MEASURED>
MIC

>  <MEASUREMENT_UNITS>
mg/L

>  <RESULT_VALUE>
0.03

$$$$
>  <COMPOUND>
CN(C)CC(=O)Nc1cc(N(C)C)c2c(c1O)C(=O)C1=C(O)C3(O)C(=O)C(C(N)=O)=C(O)C(N(C)C)C3CC1C2.O=S(=O)(O)O (stereo not shown)

>  <PROPERTY_MEASURED>
MIC

>  <MEASUREMENT_UNITS>
mg/L

>  <RESULT_VALUE>
0.06

$$$$

====

- System: S. haemolyticus AVAH 88-3
- ASSAY_OVERVIEW: MIC, agar dilution
- Type: cell-based
- TEST_CONDITIONS: S. haemolyticus AVAH 88-3

>  <COMPOUND>
CN(C)c1cc(N(C)C)c2c(c1O)C(=O)C1=C(O)C3(O)C(=O)C(C(N)=O)=C(O)C(N(C)C)C3CC1C2 (stereo not shown) [C]

>  <CENSORING_SIGN>
=

>  <MIC (µg/mL)>
0.12

$$$$
>  <COMPOUND>
CC(=O)Nc1cc(I)c2c(c1O)C(=O)C1=C(O)C3(O)C(=O)C(C(N)=O)=C(O)C(N(C)C)C3CC1C2.O=S(=O)(O)O (stereo not shown) [H]

>  <CENSORING_SIGN>
=

>  <MIC (µg/mL)>
2

$$$$
>  <COMPOUND>
CCN(CC)c1cc(NC(C)=O)c(O)c2c1C[C@H]1C[C@H]3[C@H](N(C)C)C(O)=C(C(N)=O)C(=O)[C@@]3(O)C(O)=C1C2=O.O=S(=O)(O)O.O=S(=O)(O)O [Compound E]

>  <CENSORING_SIGN>
=

>  <MIC (µg/mL)>
8

$$$$
>  <COMPOUND>
CN(C)c1cc(NC(=O)CO)c(O)c2c1CC1CC3C(N(C)C)C(O)=C(C(N)=O)C(=O)C3(O)C(O)=C1C2=O (stereo not shown) [L]

>  <CENSORING_SIGN>
=

>  <MIC (µg/mL)>
16

$$$$
>  <COMPOUND>
CN(C)c1cc(NC(=O)c2c(F)c(F)c(F)c(F)c2F)c(O)c2c1CC1CC3C(N(C)C)C(O)=C(C(N)=O)C(=O)C3(O)C(O)=C1C2=O (stereo not shown) [T]

>  <CENSORING_SIGN>
=

>  <MIC (µg/mL)>
4

$$$$
>  <COMPOUND>
CN(C)c1ccc(C(=O)Nc2cc(N(C)C)c3c(c2O)C(=O)C2=C(O)[C@]4(O)C(=O)C(C(N)=O)=C(O)[C@@H](N(C)C)[C@@H]4C[C@@H]2C3)cc1 [W]

>  <CENSORING_SIGN>
=

>  <MIC (µg/mL)>
16

$$$$
>  <COMPOUND>
CN(C)c1cc(NC(=O)c2ccco2)c(O)c2c1CC1CC3C(N(C)C)C(O)=C(C(N)=O)C(=O)C3(O)C(O)=C1C2=O (stereo not shown) [Y]

>  <CENSORING_SIGN>
>

>  <MIC (µg/mL)>
32

$$$$
